Values compiled from paper PMC6804264.

- test: In vivo pharmacokinetics after oral (intragastric) administration
- testConditions: male, Wistar, rat, rats, 40 mg/kg NMS, plasma, n = 3
experimentalReadout: Tmax (h)
Note: unit h is implicit; provide only the numeric part.

[ask] Give the measured Tmax for CS(=O)(=O)Nc1ccc([N+](=O)[O-])cc1Oc1ccccc1 [NMS, nimesulide]
[reply] 4

====

- test: In vivo pharmacokinetics after oral (intragastric) administration
- testConditions: male, Wistar, rat, rats, 40 mg/kg NMS, plasma, n = 3, read-out: MRT(0–t)
experimentalReadout: MRT last (h)
# value in h; strip the unit string

[ask] Please look at this compound and report its MRT last: CS(=O)(=O)Nc1ccc([N+](=O)[O-])cc1Oc1ccccc1 [NMS, nimesulide]
[reply] 5.73
